targetDesc: H3K9me3 peptide (fluorescence polarization)
assayProtocol: fluorescence polarisation
assayMetric: Kd (nM)
Write down the numeric answer in nM and omit the unit.

Prompt line: For the binder shown here, hCDYL1b chromodomain (1–78 aa) (domain or fragment) MASEELYEVERIVDKRKNKKGKTEYLVRWKGYDSEDDTWEPEQHLVNCEEYIHDFNRRHTEKQKESTLTRTNRTSPNN , give the reported Kd.
Response line: 2000
